value-type: melting point

Example results:
{"compound": "Cc1cc(C)cc(COc2ccc(S(=O)(=O)Nc3c(C)cc(C)cc3C)cc2)c1", "value-type": "melting point", "endpoint-value": "152 to 153 °C"}
{"compound": "O=S(=O)(Nc1ccc(OC(F)(F)F)cc1)c1ccc(-c2ccc(OC(F)(F)F)cc2)cc1 [Compound D2]", "value-type": "melting point", "endpoint-value": "139 to 140 °C"}
{"compound": "Cc1cc(C)c(NS(=O)(=O)c2ccc(-c3ccc4ccccc4c3)cc2)c(C)c1", "value-type": "melting point", "endpoint-value": "211 to 212 °C"}

Okay, next one:
Cc1cc(C)c(NS(=O)(=O)c2ccc(NCCCCN3C(=O)c4cccc5c(N(C)C)ccc(c45)C3=O)cc2)c(C)c1 yielded melting point of 184 to 185 °C
